Give folding enthalpy for every item shown.
method: folding enthalpy; higher = less favourable; fluorescence melt of hairpins on a sequencing array, two-state fit
details: sodium 0.088 M
Numbers only, in kcal/mol.

Solved cases (3 shown):
GCAAATGCGAAAGCATGC (((..(((....)))))) ... -15
GCGGGAATCCGC ((((....)))) ... -27.9
GGTTCGCCGAAAGGCACC (((..(((....)))))) ... -8.49

Please go through the list and note folding enthalpy for each sequence.
1. GGTCCGGGAAACCGGATC (.(((((....))))).)
2. GCAGATACGAAAGTATGC (((..(((....))))))
3. GAATCACGAAAGTGCTTC (((.(((....))).)))
4. GCTGGGCGAAAGCTAAGC (((..((....))..)))
5. GCGCTTCGAAAGAAACGC (((.(((....))).)))
6. GCTACTCGAAAGAGCAGC (((.(((....))).)))
7. GCGCTTGGAAACAAGTGC ((.((((....)))).))

[-24, -22.3, -20.8, -22.1, -38.8, -37.7, -50.5]

For every record below, what is its folding enthalpy?
1. GATCACGCTGGTGATC ((((((....))))))
2. GATCGAAAATCGATC ((((((...))))))

1. -42.5
2. -29.9
